- ASSAY SYSTEM: T1, Anti-CD28 scFv (VH-linker 1-VL) (biotinylated (site not stated))
- T1 construct: biotinylated and captured on neutravidin coated plates in the phage ELISA
- T1 sequence (scFv, as listed by the source): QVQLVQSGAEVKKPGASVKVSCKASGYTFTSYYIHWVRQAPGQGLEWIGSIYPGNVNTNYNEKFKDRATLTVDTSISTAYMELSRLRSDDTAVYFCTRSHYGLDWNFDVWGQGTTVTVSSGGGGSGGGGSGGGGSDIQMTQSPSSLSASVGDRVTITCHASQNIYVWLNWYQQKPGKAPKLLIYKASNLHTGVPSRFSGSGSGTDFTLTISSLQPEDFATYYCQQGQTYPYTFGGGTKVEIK
- METHOD: phage ELISA, scFv wells pre-incubated with soluble CD28 (competitor); background signal 0.071
ASSAY ENDPOINT: Phage binding ELISA CD28 scFv signal in presence of CD28

// below: answered binders
{"columns": ["BINDER", "TEST VALUE"],
 "data": [
  ["MDWCPMYLWNECFS [Phage-80]", 0.411],
  ["MDWCPMHLWNKCFN [Phage-53]", 0.122]
]}

Give Phage binding ELISA CD28 scFv signal in presence of CD28 for each listed item.
1. MDWCPMDLWDYCFN [Phage-51]
2. MDWCPRHLWVHCFN [Phage-42]
3. MDWCPRALWHECFN [Phage-73]
4. MDWCPRYLWHECFA [Phage-71]

Result:
1: 0.107; 2: 0.254; 3: 0.401; 4: 0.429
